Quick list: IC50 (µg/mL), pseudovirus neutralization per entry.
# testSystem: HIV-1 94UG103 envelope protein (Env) on pseudovirus (HIV-1 isolate 94UG103)
# testName: cell-based or functional assay

Record excerpt, results attached:
| binder | observationType | observedResult |
| --- | --- | --- |
| 1456_P20 (PG20) (antibody, human IgG1, kappa, V domains shown) VH: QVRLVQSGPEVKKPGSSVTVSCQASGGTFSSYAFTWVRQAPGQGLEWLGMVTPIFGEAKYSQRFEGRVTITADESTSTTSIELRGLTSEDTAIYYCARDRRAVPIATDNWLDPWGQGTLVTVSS VL: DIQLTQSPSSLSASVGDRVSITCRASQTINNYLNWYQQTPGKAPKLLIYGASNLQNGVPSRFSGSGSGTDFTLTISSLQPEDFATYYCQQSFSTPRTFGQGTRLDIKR | IC50 (µg/mL), pseudovirus neutralization | > 50 µg/mL |
| 1443_C16 (PG16) (TCN-116) (antibody, V domains shown) VH: QEQLVESGGGVVQPGGSLRLSCLASGFTFHKYGMHWVRQAPGKGLEWVALISDDGMRKYHSDSMWGRVTISRDNSKNTLYLQFSSLKVEDTAMFFCAREAGGPIWHDDVKYYDFNDGYYNYHYMDVWGKGTTVTVSS VL: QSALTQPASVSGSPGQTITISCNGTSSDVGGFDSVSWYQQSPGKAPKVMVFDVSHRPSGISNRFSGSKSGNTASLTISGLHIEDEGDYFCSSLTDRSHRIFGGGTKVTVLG | IC50 (µg/mL), pseudovirus neutralization | 0.008 µg/mL |
| 1495_C14 (PGC14) (antibody, human IgG1, lambda, V domains shown) VH: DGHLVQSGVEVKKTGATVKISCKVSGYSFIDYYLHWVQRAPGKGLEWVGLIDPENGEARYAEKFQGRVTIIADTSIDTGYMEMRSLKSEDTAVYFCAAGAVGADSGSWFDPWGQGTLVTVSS VL: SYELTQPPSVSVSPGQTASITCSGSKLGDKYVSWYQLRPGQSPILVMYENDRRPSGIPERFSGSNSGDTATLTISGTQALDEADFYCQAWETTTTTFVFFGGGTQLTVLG | IC50 (µg/mL), pseudovirus neutralization | > 50 µg/mL |

input: Name the reported IC50 (µg/mL), pseudovirus neutralization value associated with the binder 1496_C09 (PG9) (TCN-109) (antibody, V domains shown) VH: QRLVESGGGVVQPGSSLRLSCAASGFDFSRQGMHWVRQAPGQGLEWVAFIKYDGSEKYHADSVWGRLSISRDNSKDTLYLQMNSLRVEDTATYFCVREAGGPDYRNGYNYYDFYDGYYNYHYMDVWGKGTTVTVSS VL: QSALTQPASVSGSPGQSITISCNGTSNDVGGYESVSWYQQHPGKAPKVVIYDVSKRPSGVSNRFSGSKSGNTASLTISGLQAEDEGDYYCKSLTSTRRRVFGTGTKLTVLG
output: 0.17 µg/mL

input: Now give it for 1460_G14 (PGG14) (antibody, human IgG1, kappa, V domains shown) VH: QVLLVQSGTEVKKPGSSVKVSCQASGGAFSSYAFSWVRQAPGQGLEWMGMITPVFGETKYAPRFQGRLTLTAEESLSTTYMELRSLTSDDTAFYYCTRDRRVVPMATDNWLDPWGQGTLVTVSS VL: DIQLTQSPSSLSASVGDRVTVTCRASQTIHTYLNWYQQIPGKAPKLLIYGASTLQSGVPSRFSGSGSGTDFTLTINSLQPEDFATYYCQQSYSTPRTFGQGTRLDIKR too.
output: > 50 µg/mL
